Tested on: Proteus vulgaris
Assay: Inhibition of growth of Proteus vulgaris (CN329) measured as MIC compound/MIC Trimethoprim
Assay type: functional

| Given smiles | MIC ratio |
| --- | --- |
| COc1c(C(C)C)cc(Cc2cnc(N)nc2N)cc1C(C)C | > 1000 |
| CC(C)(C)c1cc(Cc2cnc(N)nc2N)cc(C(C)(C)C)c1O | > 1000 |
| COc1c(C(C)(C)C)cc(Cc2cnc(N)nc2N)cc1C(C)(C)C | > 1000 |
| COc1c(C)cc(Cc2cnc(N)nc2N)cc1C(C)(C)C | > 30 |
